assay name: Inhibition of Haemophilus influenzae phenylalanyl-tRNA synthetase
readout kind: IC50

Q: Requested field: IC50. Item: CN1CCN(C(=O)c2ccc(CS(=O)(=O)c3cccc(Cl)c3)c(Cl)c2)CC1=O
Result: > 64 µM

Q: // repeat for Cn1c(-c2cccc(Cl)c2)nc(=O)c2cc(C(=O)N3CCC(C(N)=O)CC3)ccc21 and report
Result: > 64 µM

Q: // repeat for COC(=O)c1ccc([C@H](O)[C@@H](O)c2cccc(Cl)c2)c(C)c1 and report
Result: 6.5 µM

Q: // repeat for Cc1cc(C(=O)N2CCN(C)CC2)ccc1C(CO)c1cccc(Cl)c1 (centres undefined) and report
Result: > 64 µM

----------
assay name: Inhibition of Haemophilus influenzae phenylalanyl-tRNA synthetase
readout kind: pIC50
Convention used: pIC50 is expressed as -log10 of the molar concentration.

Q: Requested field: pIC50. Item: Nc1nnc(-c2ccc(OCc3cccc(Cl)c3)c(Cl)c2)o1
Result: 5.64

Q: // repeat for CCn1nccc1NC(=O)c1cc(Cl)c(OCc2cccc(Cl)c2)cn1 and report
Result: 4.62

Q: // repeat for O=C(NCC1CC1)c1ccc(OCc2cccc(Cl)c2)c(Cl)c1 and report
Result: 4.24

Q: // repeat for OCCc1nnc(-c2ccc(OCc3cccc(Cl)c3)c(Cl)c2)o1 and report
Result: 5.51

----------
assay name: Apparent intrinsic clearance in human liver microsomes
Format: ADME, Microsome
Would you mind telling me the reported CLint scaled of each entry?

Q: Requested field: CLint scaled. Item: CN1CCN(C(=O)c2ccc(OCc3cccc(Cl)c3)c(Cl)c2)CC1=O
Result: < 7.6 mL/min/kg

Q: // repeat for Clc1cccc(COc2cnc(-c3nnco3)cc2Cl)c1 and report
Result: < 10.1 mL/min/kg

Q: // repeat for O=C(NCCCCO)c1ccc(OCc2cccc(Cl)c2)c(Cl)c1 and report
Result: < 7.6 mL/min/kg

----------
assay name: Inhibition of Streptococcus pneumoniae phenylalanyl-tRNA synthetase
pIC50: −log10 of the molar value.
// class assignment uses pIC50 with these ranges: bin A: < 4; bin B: ≥ 4 and < 5; bin C: ≥ 5

Q: Could you place O=C(NCC1CC1)c1ccc(OCc2cccc(Cl)c2)c(Cl)c1 in its proper category? Many thanks.
Result: bin A

Q: // repeat for COC(=O)c1ccc(OCc2cccc(Cl)c2)c(C)c1 and report
Result: bin C

Q: // repeat for COC(=O)c1ccc(NCc2cccc(Cl)c2)c(C)c1 and report
Result: bin C

Q: // repeat for CC(CO)NC(=O)c1ccc(OCc2cccc(Cl)c2)c(Cl)c1 (stereo unspecified) and report
Result: bin A

Q: // repeat for CN1CCN(C(=O)c2ccc(OCc3cccc(Cl)c3)c(Cl)c2)CC1=O and report
Result: bin C

Q: // repeat for O=C(NCCCCO)c1ccc(OCc2cccc(Cl)c2)c(Cl)c1 and report
Result: bin A

Q: // repeat for COC(=O)c1ccc(OCc2ccc(F)c(F)c2)c(Cl)c1 and report
Result: bin C

Q: // repeat for Nc1nnc(-c2ccc(OCc3cccc(Cl)c3)c(Cl)c2)o1 and report
Result: bin B

Q: // repeat for COC(=O)c1ccc(N(C)Cc2cccc(Cl)c2)c(C)c1 and report
Result: bin C

Q: // repeat for Cc1cc(C(=O)N2CCC(C(N)=O)CC2)ccc1CCc1cccc(Cl)c1 and report
Result: bin B

Q: // repeat for C[S+]([O-])c1nnc(-c2ccc(OCc3cccc(Cl)c3)c(Cl)c2)o1 (stereo unspecified) and report
Result: bin B

----------
Would you mind telling me the reported pIC50 of each entry?
assay name: Inhibition of Streptococcus pneumoniae phenylalanyl-tRNA synthetase
pIC50: −log10 of the molar value.

Q: Requested field: pIC50. Item: COC(=O)c1ccc(NC(=O)c2cccc(Cl)c2)c(C)c1
Result: < 4.19

Q: // repeat for COC(=O)c1ccc(C(=O)Nc2cccc(Cl)c2)cc1 and report
Result: < 4.19

Q: // repeat for COC(=O)c1ccc([C@@H](O)[C@H](O)c2cccc(Cl)c2)c(C)c1 and report
Result: < 4.19

Q: // repeat for OCCc1nnc(-c2ccc(OCc3cccc(Cl)c3)c(Cl)c2)o1 and report
Result: 4.06

Q: // repeat for COC(=O)c1ccc(CN(C)c2cccc(Cl)c2)cc1 and report
Result: < 4.19

Q: // repeat for Cc1nnc(-c2ccc(OCc3cccc(Cl)c3)c(Cl)c2)o1 and report
Result: 4.02

Q: // repeat for CN1CCN(C(=O)c2ccc(S(=O)(=O)Nc3cccc(Cl)c3)c(Cl)c2)CC1=O and report
Result: < 4.19

Q: // repeat for CN1CCN(C(=O)c2ccc(CS(=O)(=O)c3cccc(Cl)c3)c(Cl)c2)CC1=O and report
Result: < 4.19

Q: // repeat for COC(=O)c1ccc([C@H](O)[C@@H](O)c2cccc(Cl)c2)c(C)c1 and report
Result: < 4.19

Q: // repeat for NC(=O)c1nnc(-c2ccc(OCc3cccc(Cl)c3)c(Cl)c2)o1 and report
Result: 4.09
